Recorded values, source paper PMC5653750.

Quick list: Maximum APD 80 Prolongation Risk Score (Fetal-like hiPSC-CM) per entry.
# Tested on: fetal-like hiPSC-CM monolayers
# Test method notes: 96-well optical mapping of action potentials (FluoVolt), fetal-like monolayers
# Format: cell-based, human
# Measurement parameters: maximal effect on APD independent of dose; APD80 divided by vehicle control APD80; 30 min treatment; concentrations up to 10 µM
Value kind: Maximum APD 80 Prolongation Risk Score (Fetal-like hiPSC-CM)

1. COc1cccc2c1C(=O)c1c(O)c3c(c(O)c1C2=O)C[C@@](O)(C(=O)CO)C[C@@H]3O[C@H]1C[C@H](N)[C@H](O)[C@H](C)O1: 1.15
2. COc1cc(N)c(Cl)cc1C(=O)NC1CCN(CCCOc2ccc(F)cc2)CC1OC (stereo not shown) [Cisapride, cisapride]: 1.49
3. CCCCc1oc2ccccc2c1C(=O)c1cc(I)c(OCCN(CC)CC)c(I)c1: 0.91
4. CN1CCN(C2=Nc3cc(Cl)ccc3Nc3ccccc32)CC1: 1.14

---

# Tested on: mature hiPSC-CM monolayers
# Test method notes: 96-well optical mapping of action potentials (FluoVolt), mature monolayers
# Format: cell-based, human
# Measurement parameters: maximal effect on APD independent of dose; APD80 divided by vehicle control APD80; 30 min treatment; concentrations up to 10 µM
# Lookup of reported Maximum APD 80 Prolongation Risk Score (Mature hiPSC-CM) keyed by entry
Value kind: Maximum APD 80 Prolongation Risk Score (Mature hiPSC-CM)

1) CC/C(=C(\c1ccccc1)c1ccc(OCCN(C)C)cc1)c1ccccc1: 1.04
2) COc1cc(N)c(Cl)cc1C(=O)NC1CCN(CCCOc2ccc(F)cc2)CC1OC (centres unmarked) [Cisapride, cisapride]: 1.15
3) C=C[C@H]1C[N@@]2CC[C@H]1C[C@@H]2[C@@H](O)c1ccnc2ccc(OC)cc12: 1.81
4) Cc1cn(-c2cc(NC(=O)c3ccc(C)c(Nc4nccc(-c5cccnc5)n4)c3)cc(C(F)(F)F)c2)cn1: 1.29
5) CC(C)COCC(CN(Cc1ccccc1)c1ccccc1)N1CCCC1 (centres unmarked): 1.64

---

Attribute: Maximum APD 80 Prolongation Risk Score (Mature hiPSC-CM)
# Test system: mature hiPSC-CM monolayers
# Test method notes: 96-well optical mapping of action potentials (FluoVolt), mature monolayers
# Format: cell-based, human
# Measurement parameters: maximal effect on APD independent of dose; APD80 divided by vehicle control APD80; 30 min treatment; concentrations up to 10 µM
Value kind: Maximum APD 80 Prolongation Risk Score (Mature hiPSC-CM)

1) CN1CCN(C2=Nc3cc(Cl)ccc3Nc3ccccc32)CC1: 1.33
2) COc1cccc2c1C(=O)c1c(O)c3c(c(O)c1C2=O)C[C@@](O)(C(=O)CO)C[C@@H]3O[C@H]1C[C@H](N)[C@H](O)[C@H](C)O1: 1.15
3) CC(C)(C)c1ccc(C(O)CCCN2CCC(C(O)(c3ccccc3)c3ccccc3)CC2)cc1 (stereo not shown): 1.21
4) CCCCc1oc2ccccc2c1C(=O)c1cc(I)c(OCCN(CC)CC)c(I)c1: 1.34
